Biological target: human 5-HT4(b) receptor (Homo sapiens)
Construct: overexpressing the full-length human 5-HT4(b) receptor with an N-terminal FLAG tag; FLAG (N)
Assay: 5-HT4(b) agonist assay (cAMP accumulation)
Details: CHO-K1 cells overexpressing full-length human 5-HT4(b) receptor; cAMP accumulation after 30 minutes at room temperature; 1 μM 5-HT as 100% activity
Description: One may determine the activity of the compounds of Formula 1 using a variety of methods, including in vitro and in vivo methods. The ability of the example compounds to activate the 5-HT4(b) receptor may be determined using the following assay. […] The ability of the example compounds to activate the 5-HT4(b) receptor was evaluated using the assay described in the Biological Activity section. […]
What pEC50 was measured for each of the following?
Interpret pEC50 as the negative base-10 log of the concentration measured in mol/L.

## Input What does the record list as pEC50 for COc1cc(N)c(Cl)cc1C(=O)N[C@@H]1CCN(CCCCCC(=O)N(C)CCCCCCCC(=O)NC[C@H](O)[C@@H](O)[C@H](O)[C@H](O)CO)C[C@@H]1OC ?
## Output 7.36

## Input What does the record list as pEC50 for Nc1c(Cl)cc(C(=O)NCC2CCN(CC3CCN(CCCCCCCCCCC(=O)NC[C@H](O)[C@@H](O)[C@H](O)[C@H](O)CO)CC3)CC2)c2c1CCO2 ?
## Output 8.60

## Input What does the record list as pEC50 for COc1cc(N)c(Cl)cc1C(=O)N[C@@H]1CCN(CCCCCC(=O)NCCCCCCCC(=O)N(CCO)C[C@H](O)[C@@H](O)[C@H](O)[C@H](O)CO)C[C@@H]1OC ?
## Output 7.72

## Input What does the record list as pEC50 for COc1cc(N)c(Cl)cc1C(=O)N[C@@H]1CCN(CCCCCC(=O)NCCCCCCCC(=O)N[C@H]2C[C@](O)(CO)[C@@H](O)[C@H](O)[C@H]2O)C[C@@H]1OC ?
## Output 7.54

## Input What does the record list as pEC50 for COc1cc(N)c(Cl)cc1C(=O)N[C@@H]1CCN(C(C)CCCCC(=O)NCCCCCCCC(=O)NC[C@H](O)[C@@H](O)[C@H](O)[C@H](O)CO)C[C@@H]1OC (some centres unmarked) ?
## Output 6.82

## Input What does the record list as pEC50 for COc1cc(N)c(Cl)cc1C(=O)N[C@@H]1CCN(CCCCCC(=O)N(C)[C@@H]2CCCN(CCCCCC(=O)NC[C@H](O)[C@@H](O)[C@H](O)[C@H](O)CO)C2)C[C@@H]1OC ?
## Output 7.51

## Input What does the record list as pEC50 for Nc1c(Cl)cc(C(=O)NC2CCN(CCCCCC(=O)NCCCCCCCC(=O)NC[C@H](O)[C@@H](O)[C@H](O)[C@H](O)CO)CC2)c2c1CCO2 ?
## Output 7.64

## Input What does the record list as pEC50 for Nc1c(Cl)cc(C(=O)NC2CCN(CCCCCC(=O)N[C@@H]3CCCN(CCCCCC(=O)NC[C@H](O)[C@@H](O)[C@H](O)[C@H](O)CO)C3)CC2)c2c1CCO2 ?
## Output 8.36

## Input What does the record list as pEC50 for COc1cc(N)c(Cl)cc1C(=O)N[C@@H]1CCN(CCCCCC(=O)NC2CCN(CCCCCCCC(=O)NC[C@H](O)[C@@H](O)[C@H](O)[C@H](O)CO)CC2)C[C@@H]1OC ?
## Output 8.02

## Input What does the record list as pEC50 for COc1cc(N)c(Cl)cc1C(=O)N[C@@H]1CCN(CCCCCC(=O)NCCCCCCCC(=O)N(CCCN(C)C)CCS(=O)(=O)O)C[C@@H]1OC ?
## Output 7.52

## Input What does the record list as pEC50 for COc1cc(N)c(Cl)cc1C(=O)N[C@@H]1CCN(CCCCCC(=O)NCCCCCCCC(=O)NCCS(=O)(=O)O)C[C@@H]1OC ?
## Output 7.25

###

Target: human 5-HT4(b) receptor (Homo sapiens, UniProt Q13639)
Construct: overexpressing the full-length human 5-HT4(b) receptor with an N-terminal FLAG tag; FLAG (N)
Sequence (Q13639 whole entry): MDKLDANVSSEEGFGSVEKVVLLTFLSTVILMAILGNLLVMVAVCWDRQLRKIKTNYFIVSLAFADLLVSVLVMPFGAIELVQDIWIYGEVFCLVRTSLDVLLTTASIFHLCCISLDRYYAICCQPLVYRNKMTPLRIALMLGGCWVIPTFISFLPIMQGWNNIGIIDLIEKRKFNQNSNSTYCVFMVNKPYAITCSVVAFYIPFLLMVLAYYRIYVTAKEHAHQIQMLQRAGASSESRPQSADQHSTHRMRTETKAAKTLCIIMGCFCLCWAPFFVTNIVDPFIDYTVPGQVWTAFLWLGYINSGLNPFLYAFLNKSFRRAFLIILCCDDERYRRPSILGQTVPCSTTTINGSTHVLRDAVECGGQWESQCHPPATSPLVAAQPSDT
Assay: 5-HT4(b) agonist assay (cAMP accumulation)
Conditions: CHO-K1 cells overexpressing full-length human 5-HT4(b) receptor; cAMP accumulation after 30 minutes at room temperature; 1 μM 5-HT as 100% activity
What EC50 was measured for each of the following?
Respond with a number, then the unit of measure.

## Input What does the record list as EC50 for CO[C@H]1CN(CC2CCN(C(=O)CCCCCC(=O)NC[C@H](O)[C@@H](O)[C@H](O)[C@H](O)CO)CC2)CC[C@H]1NC(=O)c1cc(Cl)c(N)c2c1OCC2 [Example 42] ?
## Output 1.4 nM

## Input What does the record list as EC50 for COc1cc(N)c(Cl)cc1C(=O)N[C@@H]1CCN(CCC(C)CCC(=O)NCCCCCCCC(=O)NC[C@H](O)[C@@H](O)[C@H](O)[C@H](O)CO)C[C@@H]1OC (stereo partly drawn) [Example 20] ?
## Output 57.6 nM

## Input What does the record list as EC50 for COc1cc(N)c(Cl)cc1C(=O)N[C@@H]1CCN(CCCCCC(=O)N[C@@H]2CCCN(CCCCCCCC(=O)NC[C@H](O)[C@@H](O)[C@H](O)[C@H](O)CO)C2)C[C@@H]1OC [Example 12] ?
## Output 14.6 nM

meta.source: patent US12653815B2
